assay-notes: Pharmacokinetics and Tissue Distribution in the MV4-11 xenograft model
Format: in vivo, mice
run-parameters: female, CB-17 SCID, mouse; tumor; 5 mg/kg single intravenous dose

compound-string: Cc1sc2c(c1C)C(c1ccc(Cl)cc1)=N[C@@H](CC(=O)N1CCC(CN3CCN(Cc4ccc(-n5c(O)nnc5-c5cc(C(C)C)c(O)cc5O)cc4)CC3)CC1)c1nnc(C)n1-2.Cl
Tmax / h: 1

###

Known IC50 at 72 h of a selection of compounds
System: MV4-11 cells
assay-notes: MV4-11 Cell Cytotoxicity Assay
Type: cell-based, human
run-parameters: human, MV4-11 cells, CCK-8

compound: COc1cccc(-c2cc(C(=O)Nc3ccc(-c4ccc(OC5CCN(C(=O)CNC(=O)C[C@@H]6N=C(c7ccc(Cl)cc7)c7c(sc(C)c7C)-n7c(C)nnc76)CC5)cc4OCCN(C)C)cc3)ccc2OC)c1
IC50 at 72 h: < 100 nM

compound: CCN(CC)CCNC(=O)c1nnc(-c2ccc(O)cc2O)n1-c1ccc(CN2CCN(CC3CCN(C(=O)C[C@@H]4N=C(c5ccc(Cl)cc5)c5c(sc(C)c5C)-n5c(C)nnc54)CC3)CC2)cc1
IC50 at 72 h: < 100 nM

compound: CCc1cc(C(=O)N2Cc3ccc(CN4CCN(C(=O)C[C@@H]5N=C(c6ccc(Cl)cc6)c6c(sc(C)c6C)-n6c(C)nnc65)CC4)cc3C2)c(O)cc1O
IC50 at 72 h: 100 to 1000 nM

compound: CC[C@@H](C)Nc1cc(C(=O)NC2C[C@H]3CC[C@H](C2)N3c2ccc(C(=O)Nc3ccc(CN4CCN(CC5CCN(C(=O)C[C@@H]6N=C(c7ccc(Cl)cc7)c7c(sc(C)c7C)-n7c(C)nnc76)CC5)CC4)cc3)cn2)c(C)cc1C(N)=O (stereo partly shown)
IC50 at 72 h: < 100 nM
